Parameter viability, T/C: see the listing below.
Tested on: 777334-354-R2-J4-PDC tumor spheroids with HUVEC/MSC, viability;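 further: spheroids exposed to compounds for 7 days before readout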
test description: Anticancer human tumor 777334-354-R2-J4-PDC patient-derived pancreatic adenocarcinoma cell line growth inhibition [GQUAD]
condition label: second compound 0.0316 µM; first compound 0.00999 µM; active compounds read low
Express your answer in %, writing the number without its unit.

* CC[C@@]1(O)C(=O)OCc2c1cc1n(c2=O)Cc2cc3c(CN(C)C)c(O)ccc3nc2-1 + CN(C)c1ccc(Nc2c3ccc(NC(=O)CCN4CCCC4)cc3nc3cc(NC(=O)CCN4CCCC4)ccc23)cc1 | 109
* CC[C@@]1(O)C(=O)OCc2c1cc1n(c2=O)Cc2cc3c(CN(C)C)c(O)ccc3nc2-1 + Cc1cnc(CNC(=O)c2c(=O)c3ccc(N4CCCN(C)CC4)nc3n3c2sc2ccccc23)cn1 | 95.2
* Cc1[nH]c2ccccc2c1CCNCc1ccc(/C=C/C(=O)NO)cc1 + CN(C)c1ccc(Nc2c3ccc(NC(=O)CCN4CCCC4)cc3nc3cc(NC(=O)CCN4CCCC4)ccc23)cc1 | 97.8
* Cc1[nH]c2ccccc2c1CCNCc1ccc(/C=C/C(=O)NO)cc1 + Cc1cnc(CNC(=O)c2c(=O)c3ccc(N4CCCN(C)CC4)nc3n3c2sc2ccccc23)cn1 | 93.1
* Cc1[nH]c2ccccc2c1CCNCc1ccc(/C=C/C(=O)NO)cc1 + Cc1[nH]c2ccc(F)cc2c1-c1nc2c3cccnc3c3ncccc3c2[nH]1 | 103

In: Give me measured viability, T/C, please, for this compound: Cn1ncnc1[C@H]1c2n[nH]c(=O)c3cc(F)cc(c23)N[C@@H]1c1ccc(F)cc1 + CN(C)c1ccc(Nc2c3ccc(NC(=O)CCN4CCCC4)cc3nc3cc(NC(=O)CCN4CCCC4)ccc23)cc1
Out: 87.1

In: Give me measured viability, T/C, please, for this compound: CCc1c2c(nc3ccc(O)cc13)-c1cc3c(c(=O)n1C2)COC(=O)[C@]3(O)CC + CN(C)c1ccc(Nc2c3ccc(NC(=O)CCN4CCCC4)cc3nc3cc(NC(=O)CCN4CCCC4)ccc23)cc1
Out: 38.6

In: Give me measured viability, T/C, please, for this compound: Cn1ncnc1[C@H]1c2n[nH]c(=O)c3cc(F)cc(c23)N[C@@H]1c1ccc(F)cc1 + Cc1cnc(CNC(=O)c2c(=O)c3ccc(N4CCCN(C)CC4)nc3n3c2sc2ccccc23)cn1
Out: 96.8

In: Give me measured viability, T/C, please, for this compound: Cn1ncnc1[C@H]1c2n[nH]c(=O)c3cc(F)cc(c23)N[C@@H]1c1ccc(F)cc1 + Cc1[nH]c2ccc(F)cc2c1-c1nc2c3cccnc3c3ncccc3c2[nH]1
Out: 92

In: Give me measured viability, T/C, please, for this compound: CCc1c2c(nc3ccc(O)cc13)-c1cc3c(c(=O)n1C2)COC(=O)[C@]3(O)CC + Cc1cnc(CNC(=O)c2c(=O)c3ccc(N4CCCN(C)CC4)nc3n3c2sc2ccccc23)cn1
Out: 39.5

In: Give me measured viability, T/C, please, for this compound: CCc1c2c(nc3ccc(O)cc13)-c1cc3c(c(=O)n1C2)COC(=O)[C@]3(O)CC + Cc1[nH]c2ccc(F)cc2c1-c1nc2c3cccnc3c3ncccc3c2[nH]1
Out: 44.7

In: Give me measured viability, T/C, please, for this compound: CC[C@@]1(O)C(=O)OCc2c1cc1n(c2=O)Cc2cc3c(CN(C)C)c(O)ccc3nc2-1 + Cc1[nH]c2ccc(F)cc2c1-c1nc2c3cccnc3c3ncccc3c2[nH]1
Out: 104
